Reference source for all entries: ChEMBL document CHEMBL1201862

- Test system: UACC-62
- Experimental Protocol: NCI tumour cell line growth inhibition, 48 h
Active and inactive are the calls of the source. Rule as the data show it: active = GI50 up to about 1.1 µM and inactive = higher.
Please state which outcome applies, choosing from active, inactive

Exercise: What outcome does the record of this test show for NCCNCc1c2ccccc2c(CNCCN)c2ccccc12 ?
Key: inactive

Exercise: Dear all, I need the recorded test outcome for O=C(C(Cl)=C(N1CCOCC1)N1CCOCC1)C(Cl)Cl , thank you.
Key: inactive

---

- Test system: CCRF-CEM
- Experimental Protocol: NCI tumour cell line growth inhibition, 48 h
Where a name gives a salt, the structure may show the parent alone. Calls of active or inactive are those of the source. No stated cut-off is given here; in the data, active = GI50 up to about 1.1 µM and inactive = higher.
Response enum: class 1 (active), class 0 (inactive)

# count of solved cases: 5
Fc1ccccc1-c1cc(S)c2cc3c(cc2n1)OCO3 | class 0
Cn1c(=S)sc2nc3ccccc3n2c1=S | class 0
CC(C)N1C(C)[C@@H](c2ccccc2)O[P@@]1(=O)CC1=CCCCC1 (some centres not stated) | class 0
CCCCCCCCCc1cc(=O)c2ccc(O)cc2o1 | class 0
C=C(C)[C@@]1(O)CCC[C@H]1NC(=O)OC(C)(C)C | class 0

Exercise: Name the outcome recorded for CC(C)(C)c1ccc2c(c1)OP1(Oc3cccc4cccnc34)(O2)Oc2ccc(C(C)(C)C)cc2O1 in the assay.
Key: class 1

Exercise: Give the logged outcome of this assay for the following compound: Cn1c2c(c3ccccc31)CC1c3c(c4ccccc4n3C)CC21 (configuration not stated)
Key: class 0

Exercise: Hello, I am checking results. What call was entered for O=C(c1ccccc1)N1C2CCC1C(C(F)(F)F)=C2C(F)(F)F ?
Key: class 0

Exercise: Tell me the assay call for O=C(O)CSC(NC(=O)C(C(F)(F)F)C(F)(F)F)(C(F)(F)F)C(F)(F)F please.
Key: class 0

Exercise: // outcome(item) with item = CN1[C@@H]2CC[C@H]1C[C@@H](OC(c1ccccc1)c1ccccc1)C2 [BENZTROPINE MESYLATE]
Key: class 0
